System: 292921-168-R-J2-PDC KRAS tumor spheroid viability
test.method.notes: Anticancer human tumor 292921-168-R-J2-PDC patient-derived pancreatic carcinoma cell line growth inhibition [KRAS2]
condition.summary: second compound 0.1 µM; first compound 3.16 µM; stronger effect = lower value; spheroids with HUVEC and MSC
Description: Multicellular complex tumor spheroid response to RAS pathway inhibitors in combination with a targeted agents in patient-derived cell lines with oncogenic KRAS variants from multiple cancer types A high-throughput screen of multi-cell type tumor spheroids was designed to identify active combinations of targeted small molecules and KRAS pathway inhibitors. […] Compounds. […] If the clinical Cmax for an agent had not been determined, the highest concentration tested was 10 microM. […]
Range-based classes on measured viability, T/C: low value = under 20%, medium value = from 20% up to 40%, high value = 40% and over

molecule: CC(=O)OC12COC1CC(O)C1(C)C(=O)C(O)C3=C(C)C(OC(=O)C(O)C(NC(=O)OC(C)(C)C)c4ccccc4)CC(O)(C(OC(=O)c4ccccc4)C21)C3(C)C (centres undefined) + C=CC(=O)N1CCN(c2nc(OCC3CCCN3C)nc3c2CCN(c2cccc4cccc(C)c24)C3)CC1CC#N
system: 292921-168-R-J2-PDC KRAS tumor spheroid viability
group: low value
--
molecule: COc1cc2nccc(Oc3ccc(NC(=O)C4(C(=O)Nc5ccc(F)cc5)CC4)cc3)c2cc1OC + C=CC(=O)N1CCN(c2nc(=O)n(-c3c(C)ccnc3C(C)C)c3nc(-c4c(O)cccc4F)c(F)cc23)C(C)C1
system: 292921-168-R-J2-PDC KRAS tumor spheroid viability
group: medium value
--
molecule: COC(=O)c1ccc2c(C(=Nc3ccc(N(C)C(=O)CN4CCN(C)CC4)cc3)c3ccccc3)c(O)[nH]c2c1 + COc1cc2nc(C)nc(NC(C)c3cc(N)cc(C(F)(F)F)c3)c2cc1OC1CCOC1
system: 292921-168-R-J2-PDC KRAS tumor spheroid viability
group: low value

# input for lookup
Field: class (viability, T/C) — entry: COc1cc2nccc(Oc3ccc(NC(=O)C4(C(=O)Nc5ccc(F)cc5)CC4)cc3)c2cc1OC + C=CC(=O)N1CCN(c2nc(OCC3CCCN3C)nc3c2CCN(c2cccc4cccc(C)c24)C3)CC1CC#N medium value

----------
Tested on: 292921-168-R-J2-PDC KRAS tumor spheroid viability
test.method.notes: Anticancer human tumor 292921-168-R-J2-PDC cell line growth inhibition [KRAS2];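 also: drug exposure lasted seven days after spheroids formed for three days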;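 as to viability, T/C: percent of DMSO vehicle control viability which is 100%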
condition.summary: second compound 0.1 µM; first compound 0.0001 µM; stronger effect = lower value; spheroids with HUVEC and MSC
Rule: viability, T/C below 70% gives rule met. Equal to or above 70% gives rule not met.

Would you please look over these solved cases?
compound: CC(=O)Nc1cccc(-n2c(=O)n(C3CC3)c(=O)c3c(Nc4ccc(I)cc4F)n(C)c(=O)c(C)c32)c1 + CC1OCC2(CCN(c3cnc(Sc4ccnc(N)c4Cl)c(N)n3)CC2)C1N
group: rule met

compound: CC(=O)Nc1cccc(-n2c(=O)n(C3CC3)c(=O)c3c(Nc4ccc(I)cc4F)n(C)c(=O)c(C)c32)c1 + C=CC(=O)N1CCN(c2nc(OCC3CCCN3C)nc3c2CCN(c2cccc4cccc(C)c24)C3)CC1CC#N
group: rule met

compound: CC(=O)Nc1cccc(-n2c(=O)n(C3CC3)c(=O)c3c(Nc4ccc(I)cc4F)n(C)c(=O)c(C)c32)c1 + C=CC(=O)N1CCN(c2nc(=O)n(-c3c(C)ccnc3C(C)C)c3nc(-c4c(O)cccc4F)c(F)cc23)C(C)C1
group: rule not met

Just wondering, is viability, T/C of CC(=O)Nc1cccc(-n2c(=O)n(C3CC3)c(=O)c3c(Nc4ccc(I)cc4F)n(C)c(=O)c(C)c32)c1 + COc1cc2nc(C)nc(NC(C)c3cc(N)cc(C(F)(F)F)c3)c2cc1OC1CCOC1 below 70%? rule not met

Determine whether this compound shows viability, T/C lower than 70% (ties excluded): CC(=O)Nc1cccc(-n2c(=O)n(C3CC3)c(=O)c3c(Nc4ccc(I)cc4F)n(C)c(=O)c(C)c32)c1 + CNCc1ccccc1-c1csc(C(C)Nc2nc(C)nc3cc(OC)c(OC)cc23)c1 rule met

----------
Tested on: 292921-168-R-J2-PDC KRAS tumor spheroid viability
test.method.notes: Anticancer human tumor 292921-168-R-J2-PDC cell line growth inhibition [KRAS2];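 also: drug exposure lasted seven days after spheroids formed for three days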;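 as to viability, T/C: percent of DMSO vehicle control viability which is 100%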
condition.summary: second compound 0.316 µM; first compound 0.1 µM; stronger effect = lower value; spheroids with HUVEC and MSC
readout.type: viability, T/C (%)
One number for each entry, in %.

compound: CC(=O)OC12COC1CC(O)C1(C)C(=O)C(O)C3=C(C)C(OC(=O)C(O)C(NC(=O)OC(C)(C)C)c4ccccc4)CC(O)(C(OC(=O)c4ccccc4)C21)C3(C)C (stereo unspecified) + CC1OCC2(CCN(c3cnc(Sc4ccnc(N)c4Cl)c(N)n3)CC2)C1N
numeric.readout: 10.6
--
compound: COC(=O)c1ccc2c(C(=Nc3ccc(N(C)C(=O)CN4CCN(C)CC4)cc3)c3ccccc3)c(O)[nH]c2c1 + CNCc1ccccc1-c1csc(C(C)Nc2nc(C)nc3cc(OC)c(OC)cc23)c1
numeric.readout: 88.1
--
compound: COc1cc2nccc(Oc3ccc(NC(=O)C4(C(=O)Nc5ccc(F)cc5)CC4)cc3)c2cc1OC + CNCc1ccccc1-c1csc(C(C)Nc2nc(C)nc3cc(OC)c(OC)cc23)c1
numeric.readout: 90.8
--
compound: Cn1nccc1Nc1nccc(-c2cc3c(s2)C(C)(C)N(CCN2CCOCC2)C3=O)n1 + CC1OCC2(CCN(c3cnc(Sc4ccnc(N)c4Cl)c(N)n3)CC2)C1N
numeric.readout: 25.7
--
compound: CC(C)n1nc(-c2ccc3oc(N)nc3c2)c2c(N)ncnc21 + CC1OCC2(CCN(c3cnc(Sc4ccnc(N)c4Cl)c(N)n3)CC2)C1N
numeric.readout: 16.6

Now look at this one.
Query (compound): CCNC(=O)CC1N=C(c2ccc(Cl)cc2)c2cc(OC)ccc2-n2c(C)nnc21 (stereo unspecified) + C=CC(=O)N1CCN(c2nc(=O)n(-c3c(C)ccnc3C(C)C)c3nc(-c4c(O)cccc4F)c(F)cc23)C(C)C1 ; field requested: viability, T/C 103

----------
Tested on: 292921-168-R-J2-PDC KRAS tumor spheroid viability
test.method.notes: Anticancer human tumor 292921-168-R-J2-PDC cell line growth inhibition [KRAS2];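 also: drug exposure lasted seven days after spheroids formed for three days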
condition.summary: curve of first compound; second compound 0.1 µM; spheroids with HUVEC and MSC
readout.type: IC50 (nM)
Give bare numbers, in nM.

Answered examples (2):
molecule: Cn1nccc1Nc1nccc(-c2cc3c(s2)C(C)(C)N(CCN2CCOCC2)C3=O)n1 + COc1cc2nc(C)nc(NC(C)c3cc(N)cc(C(F)(F)F)c3)c2cc1OC1CCOC1
readout.type: IC50
numeric.readout: 64.7

molecule: COc1cc2nccc(Oc3ccc(NC(=O)C4(C(=O)Nc5ccc(F)cc5)CC4)cc3)c2cc1OC + C=CC(=O)N1CCN(c2nc(=O)n(-c3c(C)ccnc3C(C)C)c3nc(-c4c(O)cccc4F)c(F)cc23)C(C)C1
readout.type: IC50
numeric.readout: 1960

Could you tell me which IC50 is on file for CCN1CCN(Cc2ccc(Nc3ncc(F)c(-c4cc(F)c5nc(C)n(C(C)C)c5c4)n3)nc2)CC1 + CNCc1ccccc1-c1csc(C(C)Nc2nc(C)nc3cc(OC)c(OC)cc23)c1 ? 19.8

----------
Tested on: 292921-168-R-J2-PDC KRAS tumor spheroid viability
test.method.notes: Anticancer human tumor 292921-168-R-J2-PDC cell line growth inhibition [KRAS2];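 also: drug exposure lasted seven days after spheroids formed for three days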;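 as to viability, T/C: percent of DMSO vehicle control viability which is 100%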
condition.summary: second compound 10 µM; first compound 0.01 µM; stronger effect = lower value; spheroids with HUVEC and MSC
readout.type: viability, T/C (%)
Give bare numbers, in %.

molecule: CCN1CCN(Cc2ccc(Nc3ncc(F)c(-c4cc(F)c5nc(C)n(C(C)C)c5c4)n3)nc2)CC1 + C=CC(=O)N1CCN(c2nc(=O)n(-c3c(C)ccnc3C(C)C)c3nc(-c4c(O)cccc4F)c(F)cc23)C(C)C1
readout.type: viability, T/C
numeric.readout: 23.9

molecule: CN(C)C/C=C/C(=O)Nc1cc2c(Nc3ccc(F)c(Cl)c3)ncnc2cc1O[C@H]1CCOC1 + COc1cc2nc(C)nc(NC(C)c3cc(N)cc(C(F)(F)F)c3)c2cc1OC1CCOC1
readout.type: viability, T/C
numeric.readout: 45.5

molecule: CC(=O)OC12COC1CC(O)C1(C)C(=O)C(O)C3=C(C)C(OC(=O)C(O)C(NC(=O)OC(C)(C)C)c4ccccc4)CC(O)(C(OC(=O)c4ccccc4)C21)C3(C)C (stereo unspecified) + CNCc1ccccc1-c1csc(C(C)Nc2nc(C)nc3cc(OC)c(OC)cc23)c1
readout.type: viability, T/C
numeric.readout: 0.14

molecule: CC(=O)Nc1cccc(-n2c(=O)n(C3CC3)c(=O)c3c(Nc4ccc(I)cc4F)n(C)c(=O)c(C)c32)c1 + COc1cc2nc(C)nc(NC(C)c3cc(N)cc(C(F)(F)F)c3)c2cc1OC1CCOC1
readout.type: viability, T/C
numeric.readout: 8.42

molecule: CCN1CCN(Cc2ccc(Nc3ncc(F)c(-c4cc(F)c5nc(C)n(C(C)C)c5c4)n3)nc2)CC1 + CNCc1ccccc1-c1csc(C(C)Nc2nc(C)nc3cc(OC)c(OC)cc23)c1
readout.type: viability, T/C
numeric.readout: 0.11

What value of viability, T/C has been reported for the following molecule? CC(C)n1nc(-c2ccc3oc(N)nc3c2)c2c(N)ncnc21 + COc1cc2nc(C)nc(NC(C)c3cc(N)cc(C(F)(F)F)c3)c2cc1OC1CCOC1 17.7

Origin of measurements: PubChem BioAssay AID1963870
